All values here come from ChEMBL document CHEMBL1139924.

# methodNotes: Inhibition of p56lck SH2 domain by ELISA
# Parameters: species or system Homo sapiens
In this section, each of the molecules is paired with its reported IC50.
Use µM as the unit, but write only the number.

COC(=O)[C@@H](Cc1ccc(O)c(O)c1)OC(=O)/C=C/c1ccc(O)c(O)c1 [METHYL ROSMARINATE]: 80
O=C(/C=C/c1ccc(O)c(O)c1)O[C@H](Cc1ccc(O)c(O)c1)C(=O)O: 24
COC(=O)[C@@H](Cc1ccc(O)c(O)c1)NC(=O)c1ccc(O)c(O)c1: 19
O=C(/C=C/c1ccc(O)c(O)c1)N[C@@H](Cc1ccc(O)c(O)c1)C(=O)O: 21
CC(C)OC(=O)[C@@H](Cc1ccc(O)c(O)c1)OC(=O)/C=C/c1ccc(O)c(O)c1: 110

Let us examine a further case.
Asked: I have this molecule here, COC(=O)[C@@H](Cc1ccc(O)c(O)c1)NC(=O)Cc1ccc(O)c(O)c1 , and I need its recorded IC50.
Given back: 21

---

# methodNotes: Inhibition of p56lck SH2 domain by ELISA
# Design: species or system Homo sapiens
measure: pIC50
Please report pIC50 as the negative decimal logarithm of the molar concentration, giving only the number.

O=C(CCc1ccc(O)c(O)c1)O[C@H](Cc1ccc(O)c(O)c1)C(=O)O: 4.82

Attention now turns to another entry.
Asked: Quick one: pIC50 for CCCOC(=O)[C@@H](Cc1ccc(O)c(O)c1)OC(=O)/C=C/c1ccc(O)c(O)c1 ?
Given back: 3.84

---

# methodNotes: Partition coefficient, log P of the compound
# Format: physicochemical
# assaySetup: octanol/water
measure: logP
Give the value as a plain number.

CC(C)OC(=O)[C@@H](Cc1ccc(O)c(O)c1)OC(=O)/C=C/c1ccc(O)c(O)c1: 1.83

Asked: Which logP value is on record for COC(=O)[C@@H](Cc1ccc(O)c(O)c1)OC(=O)/C=C/c1ccc(O)c(O)c1 [METHYL ROSMARINATE] ?
Given back: 1.48

Asked: Look up logP for this compound: O=C(CCc1ccc(O)c(O)c1)N[C@H](Cc1ccc(O)c(O)c1)C(=O)O
Given back: 0.493

Asked: Return reported logP; argument: COC(=O)[C@@H](Cc1ccc(OC)c(OC)c1)NC(=O)/C=C/c1ccc(O)c(O)c1
Given back: 1.53

Asked: I am curious: what logP value has been reported for CCOC(=O)[C@@H](Cc1ccc(O)c(O)c1)OC(=O)/C=C/c1ccc(O)c(O)c1 [ETHYL ROSMARINATE] ?
Given back: 1.5

Asked: Using the record for COC(=O)[C@@H](Cc1ccc(O)c(O)c1)NC(=O)/C=C/c1ccc(O)c(O)c1 , report its logP.
Given back: 1.39

Asked: Find the recorded logP belonging to CCCOC(=O)[C@@H](Cc1ccc(O)c(O)c1)OC(=O)/C=C/c1ccc(O)c(O)c1 and report it.
Given back: 1.52

Asked: Dear colleague, I am looking for the recorded logP of the following compound: COC(=O)[C@@H](Cc1ccc(O)c(O)c1)NC(=O)/C=C/c1ccc(OC)c(OC)c1
Given back: 1.52

Asked: Endpoint output: logP of COC(=O)[C@@H](Cc1ccc(O)c(O)c1)NC(=O)/C=C/c1ccc(O)c(OC)c1 . Value?
Given back: 1.31

---

# methodNotes: Inhibition of p56lck SH2 domain by ELISA
# Design: species or system Homo sapiens
pIC50: −log10 of the molar value.
measure: pIC50

Previously resolved entries follow.
COC(=O)CCCCCNC(=O)[C@@H](Cc1ccc(O)c(O)c1)OC(=O)/C=C/c1ccc(O)c(O)c1: < 3.30
NC(Cc1ccc(O)c(O)c1)C(=O)O (racemic): < 3.30

Now for another entry.
Asked: I would be grateful if you could share the reported pIC50 for COC(=O)[C@@H](Cc1ccc(OC)c(OC)c1)NC(=O)/C=C/c1ccc(O)c(O)c1 .
Given back: < 3.30

---

# methodNotes: Inhibition of p56lck SH2 domain by ELISA
# Set-up: species or system Homo sapiens
measure: IC50

Known results for molecules:
COC(=O)[C@@H](Cc1ccc(O)c(O)c1)NC(=O)/C=C/c1ccc(O)c(OC)c1: > 500 µM
COC(=O)[C@@H](Cc1ccc(O)c(O)c1)NC(=O)/C=C/c1ccc(OC)c(O)c1: > 500 µM

Continue with the next molecule.
Asked: Fill in: IC50 of O=C(O)/C=C/c1ccc(O)c(O)c1 [CAFFEIC ACID] is ___
Given back: > 500 µM

---

# methodNotes: Partition coefficient, log P of the compound
# Type: physicochemical
# assaySetup: octanol/water
measure: logP
Respond with the number and no other words.

COC(=O)[C@@H](Cc1ccc(O)c(O)c1)NC(=O)Cc1ccc(O)c(O)c1: 0.138
COC(=O)[C@@H](Cc1ccc(O)c(O)c1)NC(=O)/C=C/c1ccc(OC)c(O)c1: 1.37
COC(=O)[C@@H](Cc1ccc(O)c(O)c1)NC(=O)c1ccc(O)c(O)c1: 0.125
O=C(/C=C/c1ccc(O)c(O)c1)N[C@@H](Cc1ccc(O)c(O)c1)C(=O)O: 0.731
COC(=O)CCCCCNC(=O)[C@@H](Cc1ccc(O)c(O)c1)OC(=O)/C=C/c1ccc(O)c(O)c1: 1.68

Asked: Which logP value belongs to O=C(/C=C/c1ccc(O)c(O)c1)O[C@H](Cc1ccc(O)c(O)c1)C(=O)O [ROSMARINIC ACID] ?
Given back: 0.834

Asked: Field request: logP | item: O=C(/C=C/c1ccc(O)c(O)c1)N[C@H](Cc1ccc(O)c(O)c1)C(=O)O
Given back: 0.758

---

The entries below come with measured logP values attached.
# methodNotes: Partition coefficient, log P of the compound
# Assay type: physicochemical
# assaySetup: octanol/water
Form field (numeric): enter value without unit.

A selection of reference data follows.
O=C(CCc1ccc(O)c(O)c1)O[C@H](Cc1ccc(O)c(O)c1)C(=O)O: 0.503
CC(C)(C)OC(=O)[C@@H](Cc1ccc(O)c(O)c1)OC(=O)/C=C/c1ccc(O)c(O)c1: 2

Please look at the following compound next.
Asked: Quick one: logP of COC(=O)[C@@H](Cc1ccc(O)c(O)c1)NC(=O)CCc1ccc(O)c(O)c1 ?
Given back: 0.344
